# Assay Explanation: Cytotoxicity against human MCF-10A cells assessed as cell viability at 50 uM measured after 4 days by MTT assay relative to control
# Assay type: toxicity, cell-based
# Condition Info: MCF-10A cells, time 4 day, read-out: Activity
Attribute Measured: viability at 96 h, 50 µM (%)
One number for each entry, in %.

Worked cases, answers included:
1) COc1ccc2[nH]c(=O)cc(-n3nc(C)cc3C)c2c1 : 91
2) Cc1cc(C)n(-c2cc(=O)[nH]c3ccccc23)n1 : 90
3) Cc1cc(C)n(-c2cc(=O)[nH]c3c(C)cccc23)n1 : 91
4) Cc1ccc2[nH]c(=O)cc(-n3nc(C)cc3C)c2c1 : 92

Lab note: next compound to report on.
Exercise: // viability at 96 h, 50 µM lookup, key: O=c1cc(-n2nc(-c3ccccc3)cc2-c2ccccc2)c2ccccc2[nH]1
Solution: 92

---

Epidermal growth factor receptor (Homo sapiens, UniProt P00533) measurements of IC50, listed per entry.
Sequence (P00533 whole entry): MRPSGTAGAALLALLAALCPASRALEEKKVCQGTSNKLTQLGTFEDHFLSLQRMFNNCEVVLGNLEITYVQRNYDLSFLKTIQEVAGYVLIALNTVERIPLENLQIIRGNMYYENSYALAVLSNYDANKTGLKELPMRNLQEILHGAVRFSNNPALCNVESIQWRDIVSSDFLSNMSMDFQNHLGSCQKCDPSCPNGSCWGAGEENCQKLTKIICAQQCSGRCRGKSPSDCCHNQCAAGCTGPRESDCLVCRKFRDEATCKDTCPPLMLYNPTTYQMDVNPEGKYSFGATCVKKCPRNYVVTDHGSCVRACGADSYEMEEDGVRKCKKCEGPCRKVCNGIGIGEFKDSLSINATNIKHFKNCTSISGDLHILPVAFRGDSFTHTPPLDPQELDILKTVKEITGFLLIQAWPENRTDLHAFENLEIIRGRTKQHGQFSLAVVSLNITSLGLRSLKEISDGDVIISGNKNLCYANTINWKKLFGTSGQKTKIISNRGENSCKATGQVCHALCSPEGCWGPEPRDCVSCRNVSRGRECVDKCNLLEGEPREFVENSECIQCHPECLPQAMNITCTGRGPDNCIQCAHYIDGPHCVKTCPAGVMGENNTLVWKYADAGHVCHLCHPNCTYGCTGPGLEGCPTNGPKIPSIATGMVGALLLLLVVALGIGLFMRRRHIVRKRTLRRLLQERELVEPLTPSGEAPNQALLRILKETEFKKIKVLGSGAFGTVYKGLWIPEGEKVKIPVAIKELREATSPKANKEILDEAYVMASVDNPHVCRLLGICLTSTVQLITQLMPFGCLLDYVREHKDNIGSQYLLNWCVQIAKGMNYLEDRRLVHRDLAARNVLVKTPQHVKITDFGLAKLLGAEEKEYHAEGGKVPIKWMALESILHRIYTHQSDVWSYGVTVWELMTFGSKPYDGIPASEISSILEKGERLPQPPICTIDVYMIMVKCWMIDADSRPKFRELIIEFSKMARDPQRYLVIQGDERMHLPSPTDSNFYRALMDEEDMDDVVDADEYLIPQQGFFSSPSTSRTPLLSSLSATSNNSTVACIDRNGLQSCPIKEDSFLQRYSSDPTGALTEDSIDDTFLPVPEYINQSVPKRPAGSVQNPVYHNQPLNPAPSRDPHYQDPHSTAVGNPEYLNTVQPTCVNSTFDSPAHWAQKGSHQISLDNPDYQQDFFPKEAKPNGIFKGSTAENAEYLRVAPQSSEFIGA
One number for each entry, in nM.

1. C=CCn1c(SCC(=O)Nc2ccc(C(=O)/C=C/c3ccc(Cl)cc3)cc2)nnc1-c1cc(-c2ccccc2)nc2ccccc12 : 1300

Exercise: // IC50 lookup, key: C/C(=N\O)c1ccc(NC(=O)c2cc(-c3ccc(S(C)(=O)=O)cc3)nc3ccccc23)cc1
Solution: 105
